Molecular target: T1, human IgE CH3-CH4-M1′/Fc fusion protein (human)
T1 construct: also called M1′ (immobilized)
T1 sequence (chain, as listed by the source limits assumed): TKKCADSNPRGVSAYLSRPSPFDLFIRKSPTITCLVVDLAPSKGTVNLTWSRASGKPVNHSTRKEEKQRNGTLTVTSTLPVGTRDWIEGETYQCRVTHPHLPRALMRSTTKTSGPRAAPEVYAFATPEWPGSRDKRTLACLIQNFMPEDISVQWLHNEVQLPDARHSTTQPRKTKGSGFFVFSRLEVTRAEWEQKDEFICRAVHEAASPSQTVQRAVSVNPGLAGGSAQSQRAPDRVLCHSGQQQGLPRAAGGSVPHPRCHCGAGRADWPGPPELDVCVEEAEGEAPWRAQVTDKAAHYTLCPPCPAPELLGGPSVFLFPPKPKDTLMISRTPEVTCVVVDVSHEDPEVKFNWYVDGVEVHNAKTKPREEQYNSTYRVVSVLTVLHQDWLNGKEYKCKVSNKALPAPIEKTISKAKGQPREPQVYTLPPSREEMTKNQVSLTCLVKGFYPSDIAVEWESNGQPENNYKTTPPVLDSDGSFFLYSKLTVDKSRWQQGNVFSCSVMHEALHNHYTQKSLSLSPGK
Assay: SPR Biacore 2000, IgG immobilized, M1′-Fc analyte
The binders listed here are annotated with their Kd.
Please reply with the bare figure in nM and do not write the unit itself.

Binder: humanized anti-IgE/M1′ antibody 26A11.v1 (antibody, V domains shown, direct CDR graft, produced as IgG in 293 cells) VH: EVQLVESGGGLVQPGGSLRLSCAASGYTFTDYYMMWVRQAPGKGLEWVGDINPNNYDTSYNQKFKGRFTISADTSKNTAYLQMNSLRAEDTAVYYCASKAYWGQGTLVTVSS VL: DIQMTQSPSSLSASVGDRVTITCRSSQDISNSLNWYQQKPGKAPKLLIYSTSRLHSGVPSRFSGSGSGTDFTLTISSLQPEDFATYYCQQGHTLPWTFGQGTKVEIKR
Experimental Endpoint: Kd
Endpoint Unit: nM
Recorded Value: 9

Binder: murine anti-IgE/M1′ antibody 26A11 (antibody, V domains shown, mIgG1 hybridoma antibody; also called mu26A11; 26A11 mIgG1) VH: EVQLQQSGPELVKPGASVKMSCKASGYTFTDYYMMWVKQSHGKSLEWIGDINPNNYDTSYNQKFKGKATLTVDKSSSTAYIQLNSLTSEDSAVYYCASKAYWGQGTLVTVSA VL: DIQMTQTTSSLSASLGDRVTITCRSSQDISNSLNWYQQKPDGPVKLLIYSTSRLHSGVPSRFSGSGSGTDYSLTISNLEQEDLATYFCQQGHTLPWTFGGGTKVEIKR
Experimental Endpoint: Kd
Endpoint Unit: nM
Recorded Value: 5.1

Now take the following binder into account.
Looking up humanized anti-IgE/M1′ antibody 26A11.v6 (antibody, V domains shown, huIgG1; also called 26A11v6 huIgG1) VH: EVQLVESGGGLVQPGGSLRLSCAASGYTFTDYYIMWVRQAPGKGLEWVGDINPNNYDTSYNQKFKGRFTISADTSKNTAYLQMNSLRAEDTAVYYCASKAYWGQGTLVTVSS VL: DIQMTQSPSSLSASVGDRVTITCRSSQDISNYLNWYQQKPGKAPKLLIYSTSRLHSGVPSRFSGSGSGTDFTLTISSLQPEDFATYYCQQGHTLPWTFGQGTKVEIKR , I see its Kd listed as 8.3
